Measured growth of individual entries
# System: NCI-H460 lung
# assay-overview: NCI-60 one-dose screen, 48 h (100 = growth as untreated, 0 = no growth, -100 = all killed)
# experimental-conditions: 10 µM unless noted
# Protocol: Growth inhibition of the NCI-H460 human Non-Small Cell Lung tumor cell line is measured as a screen for anti-cancer activity. Cells are grown in 96 well plates and exposed to the test compound for 48 hours. Compounds are tested at a single concentration, which is 10^-5 M for most compounds. The reported endpoint is percent growth (GI% or GIPRCNT), where numbers from 0 - 100% represent growth inhibition, and numbers from -100% - 0 represent cell death. […]
This is part of a sample that, as a whole, favours compounds with a hit. Of some 83,000 tested, about 20% had one in any assay.
Your answer is read as %, so omit the unit and give the number.

# annotated cases, reported growth shown
>  <compound>
COC(=O)/C=C1\S/C(=N\NC(=O)c2cc3ccc2/C=C\c2ccc(cc2)/C=C\3)N(Cc2ccccc2)C1=O

>  <recorded-result>
93.7

$$$$
>  <compound>
CC(=O)Nc1ccc(-n2cnc3cc(-c4ccc(OCCN5CCCCC5)cc4)ccc32)cc1

>  <recorded-result>
4.54

$$$$

Prompt line: Give the reported growth for `COc1ccc(/C=C/c2nc(Nc3ccc(S(=O)(=O)Nc4cc(C)on4)cc3)c3ccccc3n2)cc1` (system: NCI-H460 lung).
Response line: 53.9

Prompt line: Give the reported growth for COc1cc(/C=N/NC(=O)c2cnn3c2NC(c2ccccc2)C3)ccc1OCc1ccccc1 (configuration not stated) (system: NCI-H460 lung).
Response line: -54

Prompt line: Give the reported growth for `NS(=O)(=O)c1ccc(CCN2C(=O)C=CC2=O)cc1` (system: NCI-H460 lung).
Response line: 115

Prompt line: Give the reported growth for `N=C(N)c1ccc(OCCCCCCCCCCOc2ccc(C(=N)N)cc2)cc1` (system: NCI-H460 lung).
Response line: -88.6

Prompt line: Give the reported growth for `C[C@H]1[C@H]2[C@H]3CC[C@@H]4[C@@]5(C)CC[C@H](O)C(C)(C)[C@@H]5CC[C@@]4(C)[C@]3(C)CC[C@]23CO[C@]1(C)[C@@H](C(=O)/C=C\c1ccco1)C3` (system: NCI-H460 lung).
Response line: 109

Prompt line: Give the reported growth for `N#C/C(=C\c1ccccn1)c1nc2cc(Cl)ccc2s1` (system: NCI-H460 lung).
Response line: 92

Prompt line: Give the reported growth for `O=C1Nc2cc(-c3cccc([N+](=O)[O-])c3)ccc2/C1=C/c1ccc[nH]1` (system: NCI-H460 lung).
Response line: 47.6

Prompt line: Give the reported growth for `CCCOC(=O)N[C@H]1CCc2cc(OC)c(OC)c(OC)c2-c2ccc(SC)c(=O)cc21` (system: NCI-H460 lung).
Response line: 0.992

Prompt line: Give the reported growth for `COc1cc2nc(-c3ccc(Cl)cc3)cc(OCCCN3CCCCC3)c2cc1OC` (system: NCI-H460 lung).
Response line: 25.6

Prompt line: Give the reported growth for `NS(=O)(=O)c1ccc(CCN2C(=O)c3cc(Cl)c(Cl)cc3C2=O)cc1` (system: NCI-H460 lung).
Response line: 109

Prompt line: Give the reported growth for `CC(=O)[C@@H]1CC[C@]2(C(N)=O)CC[C@]3(C)[C@H](CC[C@@H]4[C@@]5(C)CCCNC(C)(C)[C@@H]5CC[C@]43C)[C@@H]12` (system: NCI-H460 lung).
Response line: 86.2
